Source of measurements: patent US20210040232A1

Target: T1, soluble Macaca fascicularis CTLA-4 expressed with a C-terminal myc-myc-polyhistidine tag (Macaca fascicularis)
T1 construct: soluble protein; also called mf CTLA-4.mmh; mfCTLA4.mmh
T1 chain: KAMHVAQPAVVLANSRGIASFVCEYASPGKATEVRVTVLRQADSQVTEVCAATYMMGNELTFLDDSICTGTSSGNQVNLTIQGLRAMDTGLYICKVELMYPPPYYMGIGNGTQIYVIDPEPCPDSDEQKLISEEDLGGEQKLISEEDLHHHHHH
Test: SPR, mAb capture, 25 C
attribute-measured: kon (M⁻¹ s⁻¹)
// units = M⁻¹ s⁻¹; emit number, no label

binder: H1H19294P (antibody, human IgG1, V domains shown) VH: QVQLVQSGAEVKMSGASVRVSCKASGYTFTSYGISWMRQAPGQGLEWMGWITAYNGNSNYAQKLQGRVTMTTDTSTGTAYMELRSLTSDDTAVYYCARRGDYLGVFPYWGQGTLVTVSS VL: DIQMTQSPSSLSASVGDRVTITCRASQSISSYLNWYQQKPGKAPNLLIYTASSLQSGVPSRFSGSGSGTDFTLTISSLQPEDFATYYCQQSYSSPLTFGGGTKVEIK
data-value: 263000

Consider the additional binder presented here.
(Q) Given the binder H1H19264P (antibody, human IgG1, V domains shown) VH: QVQLVQSGAEVKKPGASVKVSCKASDYTFTSYGISWVRQAPGQGLEWMGWISVYNGNINYAQKFKGRVTMTTDTSTSTAYMELRSLRSDDMAVYYCARVTQFGMDVWGQGTTVTVSS VL: DIQMTQSPSSLSASVGDRVTITCRASQSISSNLNWYQQNPGKAPKLLIYTTSSLQGGVPSRFSGSGSGTDFTLTISSLQPEDFATYYCQQSFRTPFTFGPGTKVDIK , what is its reported kon?
(A) 49000
